assay explanation: LD50 in the mouse
Assay type: in vivo
test settings: in vivo, iv; mouse
parameter: LD50 (mg/kg)

>  <compound>
Cc1cc(C)cc(C(=O)O[C@H]2C[C@H]3CC[C@@H](C2)N3C)c1 [tropyl 3,5-dimethylbenzoate]

>  <parameter>
LD50

>  <unit annotation>
mg/kg

>  <observed result>
17

$$$$
>  <compound>
CN1[C@@H]2CC[C@H]1C[C@@H](OC(=O)c1cc(Cl)cc(Cl)c1)C2 [tropyl 3,5-dichlorobenzoate]

>  <parameter>
LD50

>  <unit annotation>
mg/kg

>  <observed result>
24

$$$$
>  <compound>
COc1cc(OC)cc(C(=O)O[C@H]2C[C@H]3CC[C@@H](C2)N3C)c1 [tropyl 3,5-dimethoxybenzoate]

>  <parameter>
LD50

>  <unit annotation>
mg/kg

>  <observed result>
29

$$$$
